- System: HCC1569;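 further: TDF is a line of transformed human dermal fibroblasts of mesenchymal origin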
- assay-remarks: H1.0 immunofluorescence intensity relative to DMSO (% of DMSO); higher = stronger H1.0 induction, active = 140 or more
- assay-setup: concentration: 10 µM; 24 h
Please enter Criterion met where H1.0 immunofluorescence intensity is greater than or equal to 100, and Criterion not met where it is lower.

Example entries and their recorded answers appear below.
COc1cc2c(c(OC)c1OC)-c1c(cc(OC)c(OC)c1OC)CC(C)C(C)C2 (stereo not drawn) [R(+)-Schisandrin A] :: Criterion not met
C=CCc1ccc(O)c(OC)c1 [Eugenol] :: Criterion not met
CN(CCOc1ccc(CC(Nc2ccccc2C(=O)c2ccccc2)C(=O)O)cc1)c1ccccn1 (stereo not given) :: Criterion not met
COC(=O)Nc1nc2ccc(S(=O)c3ccccc3)cc2[nH]1 (stereo not given) [Oxfendazole] :: Criterion met

Continue with the next compound.
Check this compound for H1.0 immunofluorescence intensity at or above 100: COC(=O)C1=C(C)NC(C)=C(C(=O)OCC(C)C)C1c1ccccc1[N+](=O)[O-] (stereo not given) [Nisoldipine]
Criterion met

These data points were gathered from the supplement of paper PMC7156485.
